All values here come from paper PMC9926475.

assay: Pharmacokinetic studies in plasma and brain of mice after i.p. injection; format: in vivo, mouse; details: female CD-1 mice, i.p. 5 mg/kg, normalized to free base dose
Property name: Cmax (mean ± SEM) Brain

N[C@@]1(c2ccccc2Cl)CCC[C@H](O)C1=O :: 166 ± 12.3 ng/g•mg/kg
N[C@]1(c2ccccc2Cl)CC[C@@H](O)CC1=O :: 258 ± 15.4 ng/g•mg/kg
N[C@]1(c2ccccc2Cl)C[C@H](O)CCC1=O :: 190± 13.7 ng/g•mg/kg

Here is another compound to look at.
# lookup: Cmax (mean ± SEM) Brain of N[C@@]1(c2ccccc2Cl)C[C@H](O)CCC1=O
490 ± 26.4 ng/g•mg/kg
